Growth Rate: recorded values
test system: U2OS; test: Incucyte cell viability with U2OS; type: toxicity, cell-based; settings: human, 24 h, 10 µM, compound concentration 10 uM, replicate number 2; further: unitless GR value; below 1 slowed growth and below 0 cell loss
Respond numerically, and do not add a unit to the figure.

>  <smiles_notation>
CC(=O)NCC(=O)N1[C@@H]2CC[C@H]1c1ccc(Nc3ncc(C(F)(F)F)c(NC4CCC4)n3)cc12

>  <Growth Rate>
-0.08

$$$$
>  <smiles_notation>
CC(C)c1nc2c(c3c1[C@@H](c1ccc(C(F)(F)F)cc1)OC31CCOCC1)[C@@H](O)CC(C)(C)C2.Cl

>  <Growth Rate>
0.87

$$$$
>  <smiles_notation>
Cc1c(N2CCCC2)nc2ccc(Br)cc2c1C(=O)NC[C@H](CCC(=O)O)c1ccccc1Cl

>  <Growth Rate>
0.79

$$$$

Attention now turns to another entry.
Per the record, CC(=O)O[C@H]1C(=O)[C@@]2(C)[C@H]([C@H](OC(=O)c3ccccc3)[C@]3(O)C[C@H](OC(=O)[C@H](O)[C@@H](NC(=O)c4ccccc4)c4ccccc4)C(C)=C1C3(C)C)[C@]1(OC(C)=O)CO[C@@H]1C[C@@H]2O has Growth Rate of -0.18

The origin of these recorded values is ChEMBL document CHEMBL5303304.
